Each entry below lists one item and its recorded IC50 (µg/ml) with constrains value.
SUBJECT OF TEST: HIV Env of isolate 1012_11_TC21_3257 (clade B) (HIV)
TEST DESCRIPTION: cell-based or functional assay
Express your answer in µg/mL, writing the number without its unit.

Field request: IC50 (µg/ml) with constrains | item: PGDM1400 (antibody, V domains shown) VH: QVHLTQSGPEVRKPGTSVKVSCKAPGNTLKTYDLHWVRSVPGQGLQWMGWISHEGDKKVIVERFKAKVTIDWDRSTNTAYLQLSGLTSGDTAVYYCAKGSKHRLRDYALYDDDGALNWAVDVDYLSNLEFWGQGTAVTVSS VL: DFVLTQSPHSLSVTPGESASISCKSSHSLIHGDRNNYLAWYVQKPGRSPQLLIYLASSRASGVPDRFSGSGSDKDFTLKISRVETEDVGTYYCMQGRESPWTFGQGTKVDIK
0.076

Field request: IC50 (µg/ml) with constrains | item: ePGDM13 (antibody, V domains shown) VH: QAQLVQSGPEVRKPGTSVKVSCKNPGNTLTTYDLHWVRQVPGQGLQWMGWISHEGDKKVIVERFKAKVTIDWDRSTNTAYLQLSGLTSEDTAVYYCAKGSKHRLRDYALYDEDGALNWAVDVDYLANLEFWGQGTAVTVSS VL: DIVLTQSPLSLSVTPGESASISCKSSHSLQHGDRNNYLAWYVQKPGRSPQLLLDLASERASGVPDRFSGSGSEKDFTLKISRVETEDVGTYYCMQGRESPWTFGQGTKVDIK
0.065

Field request: IC50 (µg/ml) with constrains | item: ePGDM5 (antibody, V domains shown) VH: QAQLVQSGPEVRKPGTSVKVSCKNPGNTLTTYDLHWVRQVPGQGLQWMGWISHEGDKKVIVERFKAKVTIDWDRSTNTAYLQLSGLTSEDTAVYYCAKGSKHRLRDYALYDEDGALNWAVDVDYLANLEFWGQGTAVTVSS VL: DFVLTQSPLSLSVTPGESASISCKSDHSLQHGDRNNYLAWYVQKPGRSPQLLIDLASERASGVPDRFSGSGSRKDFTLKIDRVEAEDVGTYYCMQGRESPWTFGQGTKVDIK
0.076

Field request: IC50 (µg/ml) with constrains | item: ePGDM9 (antibody, V domains shown) VH: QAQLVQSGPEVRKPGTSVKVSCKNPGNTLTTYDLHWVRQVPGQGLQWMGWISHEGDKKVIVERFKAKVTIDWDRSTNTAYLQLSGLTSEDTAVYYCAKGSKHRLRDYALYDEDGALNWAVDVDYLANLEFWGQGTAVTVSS VL: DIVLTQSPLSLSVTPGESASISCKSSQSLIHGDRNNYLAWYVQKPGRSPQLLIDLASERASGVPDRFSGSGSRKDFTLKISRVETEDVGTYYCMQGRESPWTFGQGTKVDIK
0.042

Ref: patent US20230134571A1
